Target: GST-Hu-p50 (Homo sapiens, UniProt P19838 7-356)
Sequence (P19838 7-356): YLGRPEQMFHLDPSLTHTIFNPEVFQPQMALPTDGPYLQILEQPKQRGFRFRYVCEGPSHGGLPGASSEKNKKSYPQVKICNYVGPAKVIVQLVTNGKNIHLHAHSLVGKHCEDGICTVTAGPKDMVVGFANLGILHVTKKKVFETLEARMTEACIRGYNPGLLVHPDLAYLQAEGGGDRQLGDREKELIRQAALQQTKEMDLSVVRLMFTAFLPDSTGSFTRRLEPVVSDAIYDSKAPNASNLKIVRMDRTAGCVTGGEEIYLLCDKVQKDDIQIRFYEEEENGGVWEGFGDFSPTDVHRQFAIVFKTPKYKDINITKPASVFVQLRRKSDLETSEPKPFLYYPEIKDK
Assay: protein-binding microarray (PBM); PBM: ~300 nM protein, 6 mM HEPES pH 7.8, 80 mM KCl, 0.5 mM EDTA, 0.5 mM EGTA, 6% glycerol, 35 ng/ul poly-dIdC, 1% milk, 1 h, room temperature; high values mean tight binding
Conditions: dsDNA, one strand shown
So I've got a bunch of sequences here, and I need their binding signal values.
Write down the numeric answer in z-score and omit the unit.

Entry under review: CCGATTAACATCAGGGATTTTCATGATGTTAATCGGGTCTTGATTCGCTTGACGCTGCTG . Reported binding signal?
4.44

Okay, and CCGATTAACATCACGGACTCCCCTGATGTTAATCGGGTCTTGATTCGCTTGACGCTGCTG ?
3.34

Okay, and CCGATTAACATCAGGAGATACCCTGATGTTAATCGGGTCTTGATTCGCTTGACGCTGCTG ?
2.58

Okay, and CCGATTAACATCAAGGGGGGATATGATGTTAATCGGGTCTTGATTCGCTTGACGCTGCTG ?
4.95

Okay, and CCGATTAACATCAGGGGGATGGATGATGTTAATCGGGTCTTGATTCGCTTGACGCTGCTG ?
3.69

Okay, and CCGATTAACATCAGGGCATTACCTGATGTTAATCGGGTCTTGATTCGCTTGACGCTGCTG ?
1.4

Okay, and CCGATTAACATCAGGACACTCCCTGATGTTAATCGGGTCTTGATTCGCTTGACGCTGCTG ?
1.94

Okay, and CCGATTAACATCAGGAATTTACCTGATGTTAATCGGGTCTTGATTCGCTTGACGCTGCTG ?
3.27

Okay, and CCGATTAACATCAGGGGGTTAGATGATGTTAATCGGGTCTTGATTCGCTTGACGCTGCTG ?
3.95

Okay, and CCGATTAACATCATAGTCCCATGTGATGTTAATCGGGTCTTGATTCGCTTGACGCTGCTG ?
1.34

Okay, and CCGATTAACATCAGGGAATACCATGATGTTAATCGGGTCTTGATTCGCTTGACGCTGCTG ?
1.46

Okay, and CCGATTAACATCACAAAATTTCCTGATGTTAATCGGGTCTTGATTCGCTTGACGCTGCTG ?
1.41

Okay, and CCGATTAACATCACTCCCTAAAATGATGTTAATCGGGTCTTGATTCGCTTGACGCTGCTG ?
2.32

Okay, and CCGATTAACATCAGTGATTAAGGTGATGTTAATCGGGTCTTGATTCGCTTGACGCTGCTG ?
1.25

Okay, and CCGATTAACATCAGGGGGAGTGATGATGTTAATCGGGTCTTGATTCGCTTGACGCTGCTG ?
4.48

Okay, and CCGATTAACATCAACGGGAATTCTGATGTTAATCGGGTCTTGATTCGCTTGACGCTGCTG ?
3.82

Okay, and CCGATTAACATCAAAAATCCCATTGATGTTAATCGGGTCTTGATTCGCTTGACGCTGCTG ?
3.48

Okay, and CCGATTAACATCAGGCCATCCCCTGATGTTAATCGGGTCTTGATTCGCTTGACGCTGCTG ?
3.33

* * *

Molecular target: GST-Nv-NF-kB (Ser allele) (Nematostella vectensis, UniProt A7UNT2 2-411)
Sequence: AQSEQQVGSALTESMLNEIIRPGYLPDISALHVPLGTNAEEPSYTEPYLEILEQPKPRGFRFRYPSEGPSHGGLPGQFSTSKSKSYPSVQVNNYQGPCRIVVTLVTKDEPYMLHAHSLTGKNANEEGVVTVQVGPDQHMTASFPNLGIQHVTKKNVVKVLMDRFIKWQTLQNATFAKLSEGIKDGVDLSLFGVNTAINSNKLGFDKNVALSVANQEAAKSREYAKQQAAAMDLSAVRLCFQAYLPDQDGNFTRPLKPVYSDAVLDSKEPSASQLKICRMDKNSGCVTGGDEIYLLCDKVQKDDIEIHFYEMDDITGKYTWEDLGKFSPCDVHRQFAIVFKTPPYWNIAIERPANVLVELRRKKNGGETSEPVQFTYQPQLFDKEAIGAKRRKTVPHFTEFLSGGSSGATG
Test: protein-binding microarray (PBM); PBM: ~300 nM protein, 6 mM HEPES pH 7.8, 80 mM KCl, 0.5 mM EDTA, 0.5 mM EGTA, 6% glycerol, 35 ng/ul poly-dIdC, 1% milk, 1 h, room temperature; high values mean tight binding
Settings: dsDNA, one strand shown
So I've got a bunch of sequences here, and I need their binding signal values.
Write down the numeric answer in z-score and omit the unit.

Entry under review: CCGATTAACATCAAACTCCCCCGTGATGTTAATCGGGTCTTGATTCGCTTGACGCTGCTG . Reported binding signal?
6.52

Okay, and CCGATTAACATCAGGGGGGGCACTGATGTTAATCGGGTCTTGATTCGCTTGACGCTGCTG ?
3.3

Okay, and CCGATTAACATCAAATATACCCCTGATGTTAATCGGGTCTTGATTCGCTTGACGCTGCTG ?
2.88

Okay, and CCGATTAACATCAAAAACTCCCATGATGTTAATCGGGTCTTGATTCGCTTGACGCTGCTG ?
4.52

Okay, and CCGATTAACATCAGGAATATACCTGATGTTAATCGGGTCTTGATTCGCTTGACGCTGCTG ?
1.48

Okay, and CCGATTAACATCAGGGAATTAGATGATGTTAATCGGGTCTTGATTCGCTTGACGCTGCTG ?
3.54

Okay, and CCGATTAACATCACGGTTTTTCCTGATGTTAATCGGGTCTTGATTCGCTTGACGCTGCTG ?
1.21

Okay, and CCGATTAACATCACAGGGAAAAATGATGTTAATCGGGTCTTGATTCGCTTGACGCTGCTG ?
5.18

Okay, and CCGATTAACATCAGGACCGTCCCTGATGTTAATCGGGTCTTGATTCGCTTGACGCTGCTG ?
1.36

* * *

Molecular target: GST-Nv-NF-kB (Ser allele) (Nematostella vectensis, UniProt A7UNT2 2-411)
Sequence: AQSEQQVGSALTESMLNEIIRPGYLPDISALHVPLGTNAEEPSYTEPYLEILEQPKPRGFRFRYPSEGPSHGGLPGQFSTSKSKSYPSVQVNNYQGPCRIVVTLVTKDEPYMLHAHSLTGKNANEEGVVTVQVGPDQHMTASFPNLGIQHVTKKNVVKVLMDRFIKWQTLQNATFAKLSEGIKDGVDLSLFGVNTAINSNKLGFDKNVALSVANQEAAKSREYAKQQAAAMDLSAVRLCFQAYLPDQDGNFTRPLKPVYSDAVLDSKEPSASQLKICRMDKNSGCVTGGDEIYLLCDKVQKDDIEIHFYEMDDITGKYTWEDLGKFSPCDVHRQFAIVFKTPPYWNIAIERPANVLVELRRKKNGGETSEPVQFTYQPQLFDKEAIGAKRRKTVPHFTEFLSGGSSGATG
Test: protein-binding microarray (PBM); PBM: ~300 nM protein, 6 mM HEPES pH 7.8, 80 mM KCl, 0.5 mM EDTA, 0.5 mM EGTA, 6% glycerol, 35 ng/ul poly-dIdC, 1% milk, 1 h, room temperature; high values mean tight binding
Conditions: dsDNA, one strand shown
parameter: binding signal (z-score)
Write down the numeric answer in z-score and omit the unit.

Entry under review: CCGATTAACATCAGGGACGGAAATGATGTTAATCGGGTCTTGATTCGCTTGACGCTGCTG . Reported binding signal?
2.34

Okay, and CCGATTAACATCAGGAATTCACCTGATGTTAATCGGGTCTTGATTCGCTTGACGCTGCTG ?
2.04

Okay, and CCGATTAACATCACATACCTACCTGATGTTAATCGGGTCTTGATTCGCTTGACGCTGCTG ?
1.21

Okay, and CCGATTAACATCAGGGGGTGTTATGATGTTAATCGGGTCTTGATTCGCTTGACGCTGCTG ?
4.85

Okay, and CCGATTAACATCAAGGGGGAGGGTGATGTTAATCGGGTCTTGATTCGCTTGACGCTGCTG ?
3.99

* * *

So I've got a bunch of sequences here, and I need their binding signal values.
Biological target: GST-Nv-NF-kB (Ser allele) (Nematostella vectensis, UniProt A7UNT2 2-411)
Sequence: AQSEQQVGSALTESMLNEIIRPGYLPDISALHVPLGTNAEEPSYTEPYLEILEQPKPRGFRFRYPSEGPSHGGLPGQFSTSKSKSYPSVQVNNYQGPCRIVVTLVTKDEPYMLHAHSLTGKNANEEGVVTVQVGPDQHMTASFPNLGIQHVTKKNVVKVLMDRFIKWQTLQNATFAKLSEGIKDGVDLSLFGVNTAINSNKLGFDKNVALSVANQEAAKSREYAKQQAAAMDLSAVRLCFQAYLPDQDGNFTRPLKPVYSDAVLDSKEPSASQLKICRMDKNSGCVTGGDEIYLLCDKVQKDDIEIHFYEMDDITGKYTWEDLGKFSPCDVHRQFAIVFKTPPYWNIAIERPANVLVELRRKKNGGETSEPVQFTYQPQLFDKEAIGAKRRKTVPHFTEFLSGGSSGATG
Assay: protein-binding microarray (PBM); PBM: ~300 nM protein, 6 mM HEPES pH 7.8, 80 mM KCl, 0.5 mM EDTA, 0.5 mM EGTA, 6% glycerol, 35 ng/ul poly-dIdC, 1% milk, 1 h, room temperature; Ap Aiptasia and Nv Nematostella (sea anemones) / Co Capsaspora / Aq Amphimedon (sponge) / Dm Drosophila / Hu human; RHD is the Rel homology domain; high values mean tight binding
Details: dsDNA, one strand shown
Write down the numeric answer in z-score and omit the unit.

Entry under review: CCGATTAACATCACGGGGAGTCCTGATGTTAATCGGGTCTTGATTCGCTTGACGCTGCTG . Reported binding signal?
4.29

Okay, and CCGATTAACATCAGGGAAAAGAATGATGTTAATCGGGTCTTGATTCGCTTGACGCTGCTG ?
4.96

Okay, and CCGATTAACATCAGGAGTTACCCTGATGTTAATCGGGTCTTGATTCGCTTGACGCTGCTG ?
1.4

Okay, and CCGATTAACATCAGGGAAGTCCATGATGTTAATCGGGTCTTGATTCGCTTGACGCTGCTG ?
1.93

Okay, and CCGATTAACATCAAGAGTCCCCCTGATGTTAATCGGGTCTTGATTCGCTTGACGCTGCTG ?
5.78

Okay, and CCGATTAACATCAGGTATTCCCATGATGTTAATCGGGTCTTGATTCGCTTGACGCTGCTG ?
2.85

Okay, and CCGATTAACATCAAGGGGGTAAATGATGTTAATCGGGTCTTGATTCGCTTGACGCTGCTG ?
4.81

Okay, and CCGATTAACATCATCCCCCCCCATGATGTTAATCGGGTCTTGATTCGCTTGACGCTGCTG ?
4

Okay, and CCGATTAACATCAGGCAAGTCCCTGATGTTAATCGGGTCTTGATTCGCTTGACGCTGCTG ?
3.07
